# pIC50 per entry
Target: T1, human immunoglobulin E (hIgE) (human, UniProt P01854-1 1-428)
T1 construct: also called human IgE; Native IgE (Abcam)
T1 sequence (P01854 whole entry): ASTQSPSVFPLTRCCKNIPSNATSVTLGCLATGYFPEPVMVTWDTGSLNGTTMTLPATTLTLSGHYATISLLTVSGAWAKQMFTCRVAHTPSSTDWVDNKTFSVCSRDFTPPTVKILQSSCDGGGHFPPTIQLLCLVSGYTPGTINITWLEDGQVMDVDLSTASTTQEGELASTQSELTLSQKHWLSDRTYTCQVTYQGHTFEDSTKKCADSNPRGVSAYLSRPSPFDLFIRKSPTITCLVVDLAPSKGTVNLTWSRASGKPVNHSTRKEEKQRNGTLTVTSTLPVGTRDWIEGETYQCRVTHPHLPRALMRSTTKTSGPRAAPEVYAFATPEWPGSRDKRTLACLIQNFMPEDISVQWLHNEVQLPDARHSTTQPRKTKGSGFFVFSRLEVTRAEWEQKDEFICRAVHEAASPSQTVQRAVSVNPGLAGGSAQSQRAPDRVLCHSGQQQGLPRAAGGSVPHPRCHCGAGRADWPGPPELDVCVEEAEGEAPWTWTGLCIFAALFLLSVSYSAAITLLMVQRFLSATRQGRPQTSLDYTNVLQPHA
Experiment: SPR competition, hIgE + mAb over hFcεRIα chip, pH 7.4
Remember the convention: pIC50 equals -log10 of concentration in molar.

INSERT INTO results (binder, observed_property, observed_value) VALUES
  ('3D6 human IgG1 mAb (antibody, V domains shown, human IgG1 and human light chain constant domains; also called clone 3D6) VH: QVQLVESGGGLVQPGGSLRLSCAASGFTFSSYYMTWVRQAPGKGLEWVSSIYSDGSNTYYADSVKGRFTISRDNAKNTLHLQMNSLKSEDTAVYYCAKDLKARYSGSYHDEGYDYWGQGTQVTVSS VL: QSALTQPSALSVTLGQTAKITCQGGSLGSSYAHWYQQKPGQAPVLVIYDDDSRPSGIPERFSGSSSGGRATLTISGAQAEDEGDYYCQSADSSGNPVFGGGTKLTVL', 'pIC50', 8.36);

We now examine a further binder.
INPUT: Give the measured pIC50 of 3A1 human IgG1 mAb (antibody, V domains shown, human IgG1 and human light chain constant domains; also called clone 3A1) VH: EVQVQESGGGLVQPGGSLRLSCAASGFTFDNYAMSWVRQAPGKGLEWVSAISWNGGSTYYAESMKGRFTISRDNAKNMLYLQMNSLKSEDTAVYYCAKDLLVAARGGMDYWGKGTLVTVSS VL: SSALTQPSAVSVSLEQTARITCQGGTLGSYGAHWYQQKPGQAPVLLIYGDNSRPSGIPERFSGTRSGGTATLTISGAQAEDEADYYCQSFDYSGNAVFGGGTHLTVL .
OUTPUT: 8.32

Data credit: patent US20220177604A1
